The reported measurements were obtained from the supplement of paper PMC6555819.

System: PPARg DBDmut IVT, anti-PPARg (DBD mutation: PPARg1 K132A/R137A, NR concentration 270 nM)
Experiment: PBM binding z-score (relative to random genomic background probes); higher = stronger binding; sequences stand for … in GC…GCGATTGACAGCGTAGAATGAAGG
Label MET when PBM binding z-score is at or above 0.2; otherwise label NOT MET.

(Q) Could you verify whether the entry "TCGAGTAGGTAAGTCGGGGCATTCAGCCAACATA" shows PBM binding z-score of no less than 0.2?
(A) NOT MET

(Q) Could you verify whether the entry "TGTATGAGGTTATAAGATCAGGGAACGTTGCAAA" shows PBM binding z-score of no less than 0.2?
(A) MET

(Q) Could you verify whether the entry "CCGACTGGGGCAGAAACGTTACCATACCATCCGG" shows PBM binding z-score of no less than 0.2?
(A) NOT MET

(Q) Could you verify whether the entry "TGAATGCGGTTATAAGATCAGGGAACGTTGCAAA" shows PBM binding z-score of no less than 0.2?
(A) MET

(Q) Could you verify whether the entry "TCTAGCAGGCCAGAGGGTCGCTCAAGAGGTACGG" shows PBM binding z-score of no less than 0.2?
(A) NOT MET

(Q) Could you verify whether the entry "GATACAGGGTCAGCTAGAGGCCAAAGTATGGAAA" shows PBM binding z-score of no less than 0.2?
(A) NOT MET

(Q) Could you verify whether the entry "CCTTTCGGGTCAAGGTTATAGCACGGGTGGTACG" shows PBM binding z-score of no less than 0.2?
(A) MET

(Q) Could you verify whether the entry "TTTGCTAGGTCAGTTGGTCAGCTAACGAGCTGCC" shows PBM binding z-score of no less than 0.2?
(A) NOT MET

(Q) Could you verify whether the entry "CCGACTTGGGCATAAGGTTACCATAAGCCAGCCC" shows PBM binding z-score of no less than 0.2?
(A) NOT MET

(Q) Could you verify whether the entry "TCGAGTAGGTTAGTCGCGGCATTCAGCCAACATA" shows PBM binding z-score of no less than 0.2?
(A) NOT MET

(Q) Could you verify whether the entry "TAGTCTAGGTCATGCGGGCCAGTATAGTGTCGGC" shows PBM binding z-score of no less than 0.2?
(A) MET

(Q) Could you verify whether the entry "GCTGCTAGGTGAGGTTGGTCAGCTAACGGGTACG" shows PBM binding z-score of no less than 0.2?
(A) NOT MET

(Q) Could you verify whether the entry "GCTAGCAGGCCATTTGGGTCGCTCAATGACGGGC" shows PBM binding z-score of no less than 0.2?
(A) NOT MET

(Q) Could you verify whether the entry "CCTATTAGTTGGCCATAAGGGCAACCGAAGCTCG" shows PBM binding z-score of no less than 0.2?
(A) NOT MET

(Q) Could you verify whether the entry "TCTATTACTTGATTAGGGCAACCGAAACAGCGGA" shows PBM binding z-score of no less than 0.2?
(A) MET

(Q) Could you verify whether the entry "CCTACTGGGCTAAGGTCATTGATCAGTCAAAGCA" shows PBM binding z-score of no less than 0.2?
(A) NOT MET

(Q) Could you verify whether the entry "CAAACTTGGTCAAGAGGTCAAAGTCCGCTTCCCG" shows PBM binding z-score of no less than 0.2?
(A) MET

(Q) Could you verify whether the entry "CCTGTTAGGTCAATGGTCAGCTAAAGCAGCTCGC" shows PBM binding z-score of no less than 0.2?
(A) NOT MET

(Q) Could you verify whether the entry "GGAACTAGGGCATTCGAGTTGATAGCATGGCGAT" shows PBM binding z-score of no less than 0.2?
(A) MET

(Q) Could you verify whether the entry "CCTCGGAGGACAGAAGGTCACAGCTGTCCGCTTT" shows PBM binding z-score of no less than 0.2?
(A) NOT MET

(Q) Could you verify whether the entry "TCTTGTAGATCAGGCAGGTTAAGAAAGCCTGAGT" shows PBM binding z-score of no less than 0.2?
(A) NOT MET

(Q) Could you verify whether the entry "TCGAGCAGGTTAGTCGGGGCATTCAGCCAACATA" shows PBM binding z-score of no less than 0.2?
(A) NOT MET

(Q) Could you verify whether the entry "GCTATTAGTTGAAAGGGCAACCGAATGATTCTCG" shows PBM binding z-score of no less than 0.2?
(A) MET

(Q) Could you verify whether the entry "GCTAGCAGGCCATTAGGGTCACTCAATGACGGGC" shows PBM binding z-score of no less than 0.2?
(A) NOT MET

(Q) Could you verify whether the entry "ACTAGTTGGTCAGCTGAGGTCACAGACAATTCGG" shows PBM binding z-score of no less than 0.2?
(A) MET

(Q) Could you verify whether the entry "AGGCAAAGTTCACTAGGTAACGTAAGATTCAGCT" shows PBM binding z-score of no less than 0.2?
(A) MET
